Biological target: LILRB1 (human (not printed on the sheet), UniProt Q8NHL6)
Sequence (Q8NHL6 24-461 limits assumed): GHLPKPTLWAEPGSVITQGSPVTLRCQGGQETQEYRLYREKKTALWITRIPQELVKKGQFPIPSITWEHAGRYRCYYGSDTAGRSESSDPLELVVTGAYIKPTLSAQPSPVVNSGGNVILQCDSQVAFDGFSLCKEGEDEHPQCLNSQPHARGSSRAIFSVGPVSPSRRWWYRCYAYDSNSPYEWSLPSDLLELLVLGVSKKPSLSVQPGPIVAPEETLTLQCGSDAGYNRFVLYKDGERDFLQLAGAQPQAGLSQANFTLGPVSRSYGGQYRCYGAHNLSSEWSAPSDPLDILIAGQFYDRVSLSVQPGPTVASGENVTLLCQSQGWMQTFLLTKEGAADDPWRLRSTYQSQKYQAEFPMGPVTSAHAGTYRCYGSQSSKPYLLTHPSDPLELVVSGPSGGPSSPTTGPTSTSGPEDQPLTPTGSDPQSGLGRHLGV
Test: LILR reporter cells on coated antibody, GFP positive (%)

binder	binding result
h193 antibody No. 33 (h193-H6 / h193-K3) (antibody, V domains shown) VH: EVQLVESGGGLVQPGGSLRLSCAASGFSLSSSYWISWVRQAPGKGLEWIGSIDSGSVGITYYATSAKGRFTISRDNSKNTLYLQMNSLRAEDTAVYYCARHGDNWALDLWGQGTLVTVSS VL: DIQMTQSPSTLSASVGDRVTITCRASQSINSWLAWYQQKPGKAPKLLIYKASTLASGVPSRFSGSGSGTEFTLTISSLQPDDFATYYCQHGYIRGDLDNVFGGGTKVEIK	no binding
h193 antibody No. 27 (h193-H5 / h193-K1) (antibody, V domains shown) VH: EVQLVESGGGLVQPGGSLRLSCAASGFSLSSSYWISWVRQAPGKGLEWIGVIDSGSVGITYYATWAKGRFTISRDNSKNTLYLQMNSLRAEDTAVYYCARHGDNWALDLWGQGTLVTVSS VL: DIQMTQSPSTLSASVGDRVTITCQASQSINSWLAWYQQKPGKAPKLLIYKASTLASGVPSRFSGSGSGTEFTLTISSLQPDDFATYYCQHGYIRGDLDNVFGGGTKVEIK	no binding
h193 antibody No. 24 (h193-H4 / h193-K2) (antibody, V domains shown) VH: EVQLVESGGGLVQPGGSLRLSCAASGFSLSSSYWISWVRQAPGKGLEWVSSIDSGSVGITYYATWAKGRFTISRDNSKNTLYLQMNSLRAEDTAVYYCARHGDNWALDLWGQGTLVTVSS VL: DLVMTQSPSTLSASVGDRVTITCQASQSINSWLAWYQQKPGKPPKLLIYKASTLASGVSSRFSGSGSGTEFTLTISSLQPDDVATYYCQHGYIRGDLDNVFGGGTKVEIK	no binding
